Test system: HL-60(TB) leukemia
Assay explanation: NCI tumour cell line growth inhibition, 48 h
Experimental readout: log10 TGI (log10 of the value in µM)

[[record]]
compound = "COc1cc(C=O)cc(/C=N/c2ccccn2)c1O"
reading = 1.92

[[record]]
compound = "O=C(Nc1cccc(-n2cc(-c3ccncc3)c(-c3ccc(Cl)c(O)c3)n2)c1)Nc1ccc(Cl)c(C(F)(F)F)c1"
reading = 0.95

[[record]]
compound = "[C-]#[N+][C@@H]1C2[C@H](CC[C@@]1(C)O)C(=C)CC[C@@H]2[C@@]1(C)CC[C@H](Cl)C(C)(C)O1 (stereo not given in full)"
reading = 0.75

[[record]]
compound = "CCOc1nc(-c2ccccc2)cc2c(O)c(C(=O)N/N=C/c3ccc(O)cc3O)[nH]c(=O)c12"
reading = 1.13

[[record]]
compound = "CSc1ncc2c(n1)-c1ccccc1OC2N1CCCCC1 (stereo not given)"
reading = 1.69


====

Tested on: OVCAR-3 ovarian
Assay explanation: NCI tumour cell line growth inhibition, 48 h; in the data active = GI50 below about 0.43 µM; inactive = the rest
Outcome codes: active, inactive

[[record]]
compound = "CCN1CCN(c2cc(C)nc(N(CCNc3ccnc4cc(Cl)ccc34)Cc3ccc4c(c3)OCO4)n2)CC1"
class_label = "inactive"

[[record]]
compound = "C[C@@H]1C[N+]2([O-])[C@H]3C4=CCC[C@@H]4CC[C@H]3[C@@]3(C)OC(=O)CC[C@]34CC[C@H]1[C@@H]42 (stereo not given in full)"
class_label = "inactive"

[[record]]
compound = "NCCN.NCCN.[Cl-].[O]=[Os+2]=[O]"
class_label = "inactive"

[[record]]
compound = "Nc1nc2c(c3ncccc13)C(c1cccc(Br)c1)Cc1ncccc1-2 (stereo not given)"
class_label = "active"

[[record]]
compound = "Nc1nc(/C=C\\c2ccc([N+](=O)[O-])cc2)nc(N2CCN(c3ccccc3)CC2)n1"
class_label = "inactive"

[[record]]
compound = "C(#Cc1cnccn1)/C=C\\C#Cc1cnccn1"
class_label = "inactive"

[[record]]
compound = "CCn1cc(C(=O)O)c(=O)c2cc(F)c(N3CCN(S(=O)(=O)c4ccc(Cl)cc4)CC3)cc21"
class_label = "inactive"

[[record]]
compound = "O=C(Nc1cccc(-n2cc(-c3ccncc3)c(-c3ccc(Cl)c(O)c3)n2)c1)Nc1ccc(Cl)c(C(F)(F)F)c1"
class_label = "inactive"

[[record]]
compound = "O=C(/C=C/c1ccc(Cl)cc1)/C=C/c1cc2ccccc2[nH]c1=O"
class_label = "inactive"

[[record]]
compound = "O=C1C=CC(=O)N1C1CCCCCCCCCCC1"
class_label = "inactive"


====

Test system: IGROV1 ovarian
Assay explanation: NCI tumour cell line growth inhibition, 48 h
As shown below, each of these molecules has a reported GI50 value.
Experimental readout: GI50

[[record]]
molecule = "CCOC(=O)[C@H]1O[C@@H]1C(=O)N[C@@H](CC(C)C)C(=O)NCCc1ccc(O)cc1"
experimental_readout = "GI50"
reading = "> 100 µM"

[[record]]
molecule = "O=c1c2ccc3cccc4c(=O)c5ccc6cccc1c6c5-c2c34"
experimental_readout = "GI50"
reading = "> 50 µM"

[[record]]
molecule = "O=C(O)CNC(=O)C(CS)Cc1ccccc1 (stereo not given)"
experimental_readout = "GI50"
reading = "> 25 µM"

[[record]]
molecule = "COc1cc2ncn(-c3cc(O[C@H](C)c4ccccc4Cl)c(C(N)=O)s3)c2cc1OC"
experimental_readout = "GI50"
reading = "0.0197 µM"

[[record]]
molecule = "O=C(Nc1ccc(CN2CCOCC2)cc1)c1ccc(-c2cc(Cl)ccc2Cl)o1"
experimental_readout = "GI50"
reading = "23.5 µM"

[[record]]
molecule = "O=C(N/N=C/c1ccccc1O)c1ccccc1O"
experimental_readout = "GI50"
reading = "0.794 µM"

[[record]]
molecule = "ClCc1ccc(-c2ccc(Cn3cnc4nc(Cl)nc(Cl)c43)cc2)cc1"
experimental_readout = "GI50"
reading = "14.3 µM"

[[record]]
molecule = "FC(F)(F)c1nnn[n-]1.[Au+].c1ccc([PH+](c2ccccc2)c2ccccc2)cc1"
experimental_readout = "GI50"
reading = "2.69 µM"

[[record]]
molecule = "C[C@@H]1C[N+]2([O-])[C@H]3C4=CCC[C@@H]4CC[C@H]3[C@@]3(C)OC(=O)CC[C@]34CC[C@H]1[C@@H]42 (stereo not given in full)"
experimental_readout = "GI50"
reading = "> 60 µM"

[[record]]
molecule = "CCOc1nc(-c2ccccc2)cc2c(O)c(C(=O)N/N=C/c3ccc(O)cc3O)[nH]c(=O)c12"
experimental_readout = "GI50"
reading = "4.08 µM"


====

Test system: HL-60(TB) leukemia
Assay explanation: NCI tumour cell line growth inhibition, 48 h
Experimental readout: TGI (µM)

[[record]]
compound = "CN1CCN(C(=S)N(C(=O)c2cccs2)C2CCCCC2)CC1"
tgt = "HL-60(TB) leukemia"
unit_text = "µM"
result_qualifier = "="
reading = 54.2

[[record]]
compound = "COc1ccc(C2[C@H]3C(=O)N(c4ccc(Cc5ccc(N6C(=O)[C@@H]7ON(c8ccccc8)C(c8ccc(OC)cc8)[C@@H]7C6=O)cc5)cc4)C(=O)[C@H]3ON2c2ccccc2)cc1 (some centres undefined)"
tgt = "HL-60(TB) leukemia"
unit_text = "µM"
result_qualifier = ">"
reading = 100

[[record]]
compound = "CCN(CC)CCOc1ccc(N2C(=O)c3cccc4cc([N+](=O)[O-])cc(c34)C2=O)cc1"
tgt = "HL-60(TB) leukemia"
unit_text = "µM"
result_qualifier = "="
reading = 28.2

[[record]]
compound = "COc1cc(C[C@@H](C)N)cc(OC)c1"
tgt = "HL-60(TB) leukemia"
unit_text = "µM"
result_qualifier = ">"
reading = 100


====

System: MDA-MB-435
Outcome codes: active, inactive

[[record]]
compound_structure = "CCN1CCN(c2cc(C)nc(N(CCNc3ccnc4cc(Cl)ccc34)Cc3ccc4c(c3)OCO4)n2)CC1"
tgt = "MDA-MB-435"
class_label = "inactive"

[[record]]
compound_structure = "COc1cc(NCCCCCN=C(N)N)c2ncccc2c1"
tgt = "MDA-MB-435"
class_label = "inactive"

[[record]]
compound_structure = "Fc1cnc(NC2CC2)nc1-c1cnc2ccc(N3CCOCC3)cn12"
tgt = "MDA-MB-435"
class_label = "active"

[[record]]
compound_structure = "O=C(Nc1ccc(CN2CCOCC2)cc1)c1ccc(-c2cc(Cl)ccc2Cl)o1"
tgt = "MDA-MB-435"
class_label = "inactive"

[[record]]
compound_structure = "CN1CCN(CCCOc2ccc3nc(Nc4cc(Cl)cc(Cl)c4)ccc3c2)CC1"
tgt = "MDA-MB-435"
class_label = "inactive"


====

System: ACHN renal
Assay explanation: NCI tumour cell line growth inhibition, 48 h
Experimental readout: GI50

[[record]]
compound_structure = "ClCc1ccc(-c2ccc(Cn3cnc4nc(Cl)nc(Cl)c43)cc2)cc1"
reading = "5360 nM"

[[record]]
compound_structure = "O=C(Nc1cccc(-n2cc(-c3ccncc3)c(-c3ccc(Cl)c(O)c3)n2)c1)Nc1ccc(Cl)c(C(F)(F)F)c1"
reading = "890 nM"

[[record]]
compound_structure = "CCOC(=O)N1C/C(=C/c2ccc(F)cc2)C(=O)/C(=C/c2ccc(F)cc2)C1"
reading = "1860 nM"

[[record]]
compound_structure = "CCOc1nc(-c2ccccc2)cc2c(O)c(C(=O)N/N=C/c3ccc(O)cc3O)[nH]c(=O)c12"
reading = "1790 nM"

[[record]]
compound_structure = "O=C(NCc1ccc(Cl)cc1Cl)c1ccc(NC2=C(Cl)C(=O)N(Cc3ccccc3)C2=O)cc1"
reading = "20800 nM"


====

System: SW-620 colon
Assay explanation: NCI tumour cell line growth inhibition, 48 h
As shown below, each of these compounds has a reported TGI value.
Experimental readout: TGI

[[record]]
compound = "CC(C)c1cc(Cl)nc(Cl)n1"
reading = "> 100 µM"

[[record]]
compound = "CC12CCC(C(Br)(Br)C1=O)C2(C)C (configuration not stated)"
reading = "0.71 µM"

[[record]]
compound = "CCOc1nc(-c2ccccc2)cc2c(O)c(C(=O)N/N=C/c3ccc(O)cc3O)[nH]c(=O)c12"
reading = "> 100 µM"

[[record]]
compound = "O=C1CN2C(Cl)(Cl)C2(c2ccccc2)c2cc(Cl)ccc2N1CC1CC1 (configuration not stated)"
reading = "> 100 µM"

[[record]]
compound = "[C-]#[N+][C@@H]1C2[C@H](CC[C@@]1(C)O)C(=C)CC[C@@H]2[C@@]1(C)CC[C@H](Cl)C(C)(C)O1 (some centres not stated)"
reading = "31.1 µM"

[[record]]
compound = "COc1cc(/C=C2\\C(=O)N(c3cc(Cl)ccc3Cl)C(c3ccccc3)S2(=O)=O)cc(OC)c1OC (configuration not stated)"
reading = "> 100 µM"

[[record]]
compound = "Cc1cc(NS(=O)(=O)c2ccc(NC(=O)c3cccn4c(=O)c5ccccc5nc34)cc2)no1"
reading = "> 100 µM"

[[record]]
compound = "CC(=O)O[C@H]1CC2C(C3CCC(C(C)CCC(=O)O)[C@]31C)[C@H](OC(C)=O)C[C@@H]1CC3(CC[C@]21C)OOC1(CC[C@]2(C)C4C[C@H](OC(C)=O)[C@]5(C)C(C(C)CCC(=O)O)CCC5C4[C@H](OC(C)=O)C[C@@H]2C1)OO3 (some centres not stated)"
reading = "> 100 µM"

[[record]]
compound = "Cc1ncc([N+](=O)[O-])n1CCNC(=O)CCCn1ccnc1[N+](=O)[O-]"
reading = "> 100 µM"

[[record]]
compound = "Clc1ccc(CSc2ncnc3c2ncn3C2CCCCO2)cc1 (configuration not stated)"
reading = "> 100 µM"

[[record]]
compound = "O=C1Nc2cc(Cl)ccc2/C1=C\\c1c(-c2ccc(F)cc2)nc2ccccn12"
reading = "2.6 µM"

[[record]]
compound = "O=C(Nc1cccc(-n2cc(-c3ccncc3)c(-c3ccc(Cl)c(O)c3)n2)c1)Nc1ccc(Cl)c(C(F)(F)F)c1"
reading = "3.77 µM"

[[record]]
compound = "CCN(CC)Cc1cc(Nc2c3ccccc3nc3c4ccccc4n(C)c23)cc(CN(CC)CC)c1O"
reading = "13.3 µM"

[[record]]
compound = "CCOC(=O)C1=C(NC(C)(C)C)OC/C1=N\\NC(=O)Cc1ccccc1"
reading = "> 100 µM"

[[record]]
compound = "N#CC(/C(CCCC(=O)Nc1cccc([N+](=O)[O-])c1)=N/NC(=O)c1cc2ccccc2cc1O)c1ccccc1 (configuration not stated)"
reading = "> 100 µM"

[[record]]
compound = "CCOC(=O)[C@H]1O[C@@H]1C(=O)N[C@@H](CC(C)C)C(=O)NCCc1ccc(O)cc1"
reading = "> 100 µM"

[[record]]
compound = "O=[N+]([O-])c1ccc2c(c1)Sc1ccccc1N2CCCCCl"
reading = "> 100 µM"

[[record]]
compound = "C(#Cc1cnccn1)/C=C\\C#Cc1cnccn1"
reading = "6.88 µM"

[[record]]
compound = "CCN(CC)CCOc1ccc(N2C(=O)c3cccc4cc([N+](=O)[O-])cc(c34)C2=O)cc1"
reading = "25.8 µM"

[[record]]
compound = "NCCN.NCCN.[Cl-].[O]=[Os+2]=[O]"
reading = "> 100 µM"

[[record]]
compound = "CSC1=NN(c2ccccc2)C(=O)C1=C(SC)SC"
reading = "> 100 µM"

[[record]]
compound = "Nc1cc(-c2ccccc2)nn1-c1nsc2ccccc12"
reading = "> 100 µM"

[[record]]
compound = "O=C(Oc1ccc(S(=O)(=O)F)cc1F)c1ccccc1Cl"
reading = "> 100 µM"

[[record]]
compound = "CCOP(=O)(O)C(Nc1ccc(N=Nc2ccccc2)cc1)c1ccc(C(Nc2ccc(N=Nc3ccccc3)cc2)P(=O)(O)OCC)cc1 (configuration not stated)"
reading = "38.2 µM"

[[record]]
compound = "COc1ccc(C2=C3c4cc(OC)c(OC)cc4CCN3C(=S)SS2)cc1OC"
reading = "> 100 µM"

[[record]]
compound = "COc1cc(C=O)cc(/C=N/c2ccccn2)c1O"
reading = "> 100 µM"

[[record]]
compound = "O=S(=O)(O)SC/C=C\\CSS(=O)(=O)O"
reading = "> 100 µM"

[[record]]
compound = "O=c1cc(-c2ccccc2)oc2cc(Oc3nnnn3-c3ccccc3)ccc12"
reading = "> 100 µM"

[[record]]
compound = "CCOC(=O)C1(C)CCc2sc(N)c(C#N)c21 (configuration not stated)"
reading = "> 100 µM"

[[record]]
compound = "COc1ccc2[nH]c(-c3ccccc3)c(/C=C(\\C#N)S(=O)(=O)c3ccccc3)c2c1"
reading = "> 100 µM"

[[record]]
compound = "CCOC(=O)C1(O)C(=O)C2=C3C(=O)OC(C4OC(=O)c5c(c(O)c(O)c(O)c5C31)-c1c(cc(O)c(O)c1O)C(=O)OC1COC(=O)c3cc(O)c(O)c(O)c3-c3c(cc(O)c(O)c3O)C(=O)OC14)[C@@H]2O (some centres not stated)"
reading = "54.5 µM"

[[record]]
compound = "CC(C)(C)OC(=O)C1C(=O)NC(=O)CC1CC(OCc1ccccc1)C(COCc1ccccc1)OCc1ccccc1 (configuration not stated)"
reading = "> 100 µM"

[[record]]
compound = "Cc1nn(C2OC(CO)C(O)C(F)C2O)c(=O)[nH]c1=O (configuration not stated)"
reading = "> 100 µM"

[[record]]
compound = "Cn1c(=O)[nH]c2nccnc2c1=O"
reading = "> 10 µM"

[[record]]
compound = "Cc1ccc(C(=O)Nc2ccccc2)cc1N=NN(C)C"
reading = "> 100 µM"

[[record]]
compound = "COC1CC(OC2C(C)OC(OC3C(C)OC(OC4C(C)OC(O[C@H]5CC[C@@]6(C)C(=CC[C@]7(O)[C@@H]6C[C@@H](OC(=O)/C=C(\\C)C(C)C)[C@@]6(C)[C@]7(O)CC[C@@]6(O)C(C)=O)C5)CC4OC)CC3OC)CC2OC)OC(C)C1O (some centres not stated)"
reading = "> 12.5 µM"

[[record]]
compound = "COc1cc(NCCCCCN=C(N)N)c2ncccc2c1"
reading = "> 100 µM"

